Values were extracted from patent US7514457B2.

# targetSystem: human VR1 (Homo sapiens)
# Sequence (Q8NER1 whole entry): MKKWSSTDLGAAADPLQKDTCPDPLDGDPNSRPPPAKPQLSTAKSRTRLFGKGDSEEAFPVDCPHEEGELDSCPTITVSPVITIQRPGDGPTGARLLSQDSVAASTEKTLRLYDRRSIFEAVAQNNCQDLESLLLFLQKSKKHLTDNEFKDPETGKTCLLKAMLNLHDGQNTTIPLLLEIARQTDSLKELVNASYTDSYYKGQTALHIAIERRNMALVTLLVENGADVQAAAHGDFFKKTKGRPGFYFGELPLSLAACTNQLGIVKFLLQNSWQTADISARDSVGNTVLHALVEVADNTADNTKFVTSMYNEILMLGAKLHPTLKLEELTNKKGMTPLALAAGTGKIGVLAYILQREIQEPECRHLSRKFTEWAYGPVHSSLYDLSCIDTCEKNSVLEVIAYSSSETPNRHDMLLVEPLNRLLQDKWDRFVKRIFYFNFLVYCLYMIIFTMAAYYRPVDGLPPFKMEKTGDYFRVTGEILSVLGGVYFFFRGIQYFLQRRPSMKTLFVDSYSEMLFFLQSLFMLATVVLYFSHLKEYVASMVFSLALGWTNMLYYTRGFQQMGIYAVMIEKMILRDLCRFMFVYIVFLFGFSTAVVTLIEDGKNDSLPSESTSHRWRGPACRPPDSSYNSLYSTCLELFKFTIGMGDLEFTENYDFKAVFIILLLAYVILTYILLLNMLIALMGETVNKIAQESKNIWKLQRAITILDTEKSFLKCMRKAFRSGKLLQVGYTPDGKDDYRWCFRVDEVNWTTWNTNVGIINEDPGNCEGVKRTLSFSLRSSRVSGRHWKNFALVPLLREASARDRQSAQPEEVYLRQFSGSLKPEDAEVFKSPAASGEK
# procedureDetails: Human VR1 antagonist assay (Ca2+ imaging)
# conditionsUsed: Ca2+ imaging in human VR1 expressing cells; agonist stimulation (capsaicin 300 nM or acid pH 5.8) not given
measurementKind: IC50 (nM)

Some molecules with recorded IC50:
[[record]]
smilesrepr = "CC(C)(C)c1ccc(OCC(=O)NCc2ccc3[nH]c(=O)[nH]c3c2)cc1Cl"
testresult = 86

[[record]]
smilesrepr = "CC(C)(C)c1ccc(OCC(=O)NCc2ccc3[nH]c(=O)[nH]c3c2)cc1F"
testresult = 111

[[record]]
smilesrepr = "Cn1c(=O)[nH]c2ccc(CNC(=O)COc3ccc(C(C)(C)C)c(Cl)c3)cc21"
testresult = 481

[[record]]
smilesrepr = "Cn1c(=O)[nH]c2cc(CNC(=O)COc3ccc(C(C)(C)C)cc3)ccc21"
testresult = 462


I = CC(C)(C)c1ccc(OCC(=O)NCc2ccc3[nH]c(=O)[nH]c3c2)cc1
II = CC(C)(C)c1c(F)cc(OCC(=O)NCc2ccc3[nH]c(=O)[nH]c3c2)cc1F
III = Cn1c(=O)[nH]c2cc(CNC(=O)COc3ccc(C(C)(C)C)c(Cl)c3)ccc21
IV = C[C@@H](NC(=O)COc1cc(F)c(C(C)(C)C)c(F)c1)c1ccc2nn[nH]c2c1
Please list these in order of increasing IC50. Thank you! Give the labels in the order requested.
IV, II, III, I
(IV: 31 nM, II: 97 nM, III: 175 nM, I: 421 nM)
